assay: folding enthalpy; higher = less favourable; fluorescence melt of hairpins on a sequencing array, two-state fit; details: sodium 0.088 M
Assign folding enthalpy to each entry below.
Write down the numeric answer in kJ/mol and omit the unit.

Query: // query folding enthalpy value for entry GGGTCGCCGAAAGGCCCC (((..(((....))))))
Response: -46.2

Query: // query folding enthalpy value for entry GATCTATCGCTAGATC ((((((....))))))
Response: -62.9

Query: // query folding enthalpy value for entry GGCTACGAAAGTAGGGCC ((((((....)))..)))
Response: -65.6

Query: // query folding enthalpy value for entry GGCGTCGAAAGACGTGCC ((((((....)))..)))
Response: -50.3

Query: // query folding enthalpy value for entry GGACACCCGAAAGGGTCC (((..(((....))))))
Response: -48.2

Query: // query folding enthalpy value for entry GGGACAGCGAAAGCTCCC (((..(((....))))))
Response: -79.6

---

assay: melting temperature; fluorescence melt of hairpins on a sequencing array, two-state fit, raised by 9.35 °C to match UV melts; settings: sodium 0.088 M
Assign Tm to each entry below.
Write down the numeric answer in °C and omit the unit.

Query: // query Tm value for entry GCGGTGCGAAAGCAGGGC ((..(((....)))..))
Response: 55.2

Query: // query Tm value for entry GAGGGCGAAAGCCACCTC ((((((....)))..)))
Response: 38.1

Query: // query Tm value for entry GTCTGAGGAAACTTAGAC ((((.((....)).))))
Response: 39.9

Query: // query Tm value for entry GCCAGAACGAAAGTTGGC (((..(((....))))))
Response: 49.8

Query: // query Tm value for entry GAACTCCGAAAGGATTC (((.(((....))))))
Response: 37.1

Query: // query Tm value for entry GGAGCTGGAAACAACTCC ((((.((....)).))))
Response: 42.6

---

Assign Tm to each entry below.
assay: melting temperature; fluorescence melt of hairpins on a sequencing array, two-state fit, raised by 9.35 °C to match UV melts; details: sodium 0.088 M
Write down the numeric answer in °C and omit the unit.

Query: // query Tm value for entry CGTCTCCGGAAACGGACG (((..(((....))))))
Response: 37.8

Query: // query Tm value for entry GCGTGTACGAAAGTACGC (((..(((....))))))
Response: 53.1

Query: // query Tm value for entry GGTGATACGAAAGTAACC (((..(((....))))))
Response: 33.6

Query: // query Tm value for entry GGCGTACGAAAGTAGCC (((.(((....))))))
Response: 65.5

Query: // query Tm value for entry GCTGGGCGAAAGCCTAGC (((.(((....))).)))
Response: 66.2

Query: // query Tm value for entry GATCAACGTCTTGATC ((((((....))))))
Response: 42.6

Query: // query Tm value for entry GCTGCGTCGAAAGACAGC (((..(((....))))))
Response: 47.1

Query: // query Tm value for entry GATCCTGTAGAGGATC ((((((....))))))
Response: 55.5

Query: // query Tm value for entry GTCTTCGAAAGAAGAC ((((((....))))))
Response: 62.4

Query: // query Tm value for entry GATCTATAAATAGATC ((((((....))))))
Response: 39.9

Query: // query Tm value for entry GGGAGCGAAAGCTCTCCC ((((((....)))..)))
Response: 52.2

Query: // query Tm value for entry CTAGAGAAATCTAG (((((....)))))
Response: 26.2

---

assay: melting temperature; fluorescence melt of hairpins on a sequencing array, two-state fit, raised by 9.35 °C to match UV melts; settings: sodium 0.088 M
Assign Tm to each entry below.
Write down the numeric answer in °C and omit the unit.

Query: // query Tm value for entry GGTTGCGAAAGCAAAACC ((((((....)))..)))
Response: 48.9

Query: // query Tm value for entry GCGCCACCGAAAGGTCGC (((..(((....))))))
Response: 51.4

Query: // query Tm value for entry GTCCACCGAAAGGTAGAC (((.(((....))).)))
Response: 47.4

Query: // query Tm value for entry GGCTCCACGAAAGTGGCC (((..(((....))))))
Response: 37.6

Query: // query Tm value for entry GGGTACGAAAGTAGTCCC ((((((....)))..)))
Response: 36.4

Query: // query Tm value for entry GCGTCCGCGAAAGCGCGC (((..(((....))))))
Response: 53.5

---

assay: folding enthalpy; higher = less favourable; fluorescence melt of hairpins on a sequencing array, two-state fit; conditions: sodium 0.088 M
Label class 1 when folding enthalpy is at or above -20 kcal/mol; otherwise label class 0.

Query: In plain terms: is recorded folding enthalpy at least -20 kcal/mol for GGACCCGAAAGGGGTTCC ((((((....)))..))) ?
Response: class 1

Query: In plain terms: is recorded folding enthalpy at least -20 kcal/mol for GCGGTACCGAAAGGTCGC (((..(((....)))))) ?
Response: class 0

Query: In plain terms: is recorded folding enthalpy at least -20 kcal/mol for GCACCGGGAAACCGGTAC (.(((((....))))).) ?
Response: class 1

Query: In plain terms: is recorded folding enthalpy at least -20 kcal/mol for GATAGCGAAAGCTTGATC ((((((....)))..))) ?
Response: class 1

Query: In plain terms: is recorded folding enthalpy at least -20 kcal/mol for GAACCCGAAAGGGAGTTC ((((((....)))..))) ?
Response: class 1

Query: In plain terms: is recorded folding enthalpy at least -20 kcal/mol for GATCCTGGCGAGGATC ((((((....)))))) ?
Response: class 0

Query: In plain terms: is recorded folding enthalpy at least -20 kcal/mol for GTGATTCGAAAGAACAC (((.(((....)))))) ?
Response: class 0

Query: In plain terms: is recorded folding enthalpy at least -20 kcal/mol for GCTTACGAAAGTATAGC ((((((....))).))) ?
Response: class 0

Query: In plain terms: is recorded folding enthalpy at least -20 kcal/mol for GATTCTGGAAACAGAACC (.(((((....))))).) ?
Response: class 1

Query: In plain terms: is recorded folding enthalpy at least -20 kcal/mol for GTGGAGCGAAAGCTGCAC (((.(((....))).))) ?
Response: class 0

Query: In plain terms: is recorded folding enthalpy at least -20 kcal/mol for GTCGGTACGAAAGTAGAC (((..(((....)))))) ?
Response: class 1

Query: In plain terms: is recorded folding enthalpy at least -20 kcal/mol for GTATAGCGAAAGCTTTAC (((.(((....))).))) ?
Response: class 0

Query: In plain terms: is recorded folding enthalpy at least -20 kcal/mol for GGTTGCCCGAAAGGGACC (((..(((....)))))) ?
Response: class 1

Query: In plain terms: is recorded folding enthalpy at least -20 kcal/mol for GGTGTGCGAAAGCAAACC (((.(((....))).))) ?
Response: class 0

Query: In plain terms: is recorded folding enthalpy at least -20 kcal/mol for GATCGGCCAACCGATC ((((((....)))))) ?
Response: class 0

Query: In plain terms: is recorded folding enthalpy at least -20 kcal/mol for GGGTGTGGAAACACGTCC ((..(((....)))..)) ?
Response: class 1

Query: In plain terms: is recorded folding enthalpy at least -20 kcal/mol for GGTGTCGAAAGACGGACC ((((((....)))..))) ?
Response: class 1

Query: In plain terms: is recorded folding enthalpy at least -20 kcal/mol for GACCACGAAAGTGCGTC ((((((....))).))) ?
Response: class 0

Query: In plain terms: is recorded folding enthalpy at least -20 kcal/mol for GACTGAGAAATCAGTC ((((((....)))))) ?
Response: class 0

Query: In plain terms: is recorded folding enthalpy at least -20 kcal/mol for GATCTCGCTGGAGATC ((((((....)))))) ?
Response: class 0

Query: In plain terms: is recorded folding enthalpy at least -20 kcal/mol for GGCAAGGAAACTTGCC ((((((....)))))) ?
Response: class 0

Query: In plain terms: is recorded folding enthalpy at least -20 kcal/mol for GCCACCGAAAGGTACGGC ((((((....)))..))) ?
Response: class 0

Query: In plain terms: is recorded folding enthalpy at least -20 kcal/mol for GGTAATGCGAAAGCAACC (((..(((....)))))) ?
Response: class 1

Query: In plain terms: is recorded folding enthalpy at least -20 kcal/mol for GATATTGGAAACAATATC (((((((....))))))) ?
Response: class 0

Query: In plain terms: is recorded folding enthalpy at least -20 kcal/mol for GCCAACGAAAGTTGTGGC ((((((....)))..))) ?
Response: class 1

Query: In plain terms: is recorded folding enthalpy at least -20 kcal/mol for GTTTCGACGAAAGTCAAC (((..(((....)))))) ?
Response: class 1

Query: In plain terms: is recorded folding enthalpy at least -20 kcal/mol for GTGGAGGGAAACCTCCGC (.(((((....))))).) ?
Response: class 0

Query: In plain terms: is recorded folding enthalpy at least -20 kcal/mol for GTCGCCGAAAGGCTAGAC ((((((....)))..))) ?
Response: class 1

Query: In plain terms: is recorded folding enthalpy at least -20 kcal/mol for GTCTCGGGAAACTGAGAC (((((.(....).))))) ?
Response: class 0

Query: In plain terms: is recorded folding enthalpy at least -20 kcal/mol for GGGGTCGAAAGACGGCCC ((((((....)))..))) ?
Response: class 0

Query: In plain terms: is recorded folding enthalpy at least -20 kcal/mol for GATCCGCGGCCGGATC ((((((....)))))) ?
Response: class 0

Query: In plain terms: is recorded folding enthalpy at least -20 kcal/mol for GGATTGCGAAAGCAGTCC (((.(((....))).))) ?
Response: class 0

Query: In plain terms: is recorded folding enthalpy at least -20 kcal/mol for GATCTTCGACAAGATC ((((((....)))))) ?
Response: class 0

Query: In plain terms: is recorded folding enthalpy at least -20 kcal/mol for GCCCCGCGAAAGCAGAGC ((.(.((....)).).)) ?
Response: class 1

Query: In plain terms: is recorded folding enthalpy at least -20 kcal/mol for GGTTTCGAAAGAAGCACC ((((((....)))..))) ?
Response: class 1

Query: In plain terms: is recorded folding enthalpy at least -20 kcal/mol for GATCATGAGCATGATC ((((((....)))))) ?
Response: class 0

Query: In plain terms: is recorded folding enthalpy at least -20 kcal/mol for GCCGTCCGAAAGGAAGGC (((.(((....))).))) ?
Response: class 0

Query: In plain terms: is recorded folding enthalpy at least -20 kcal/mol for GCTGTCGAAAGACCAGC ((((((....))).))) ?
Response: class 0

Query: In plain terms: is recorded folding enthalpy at least -20 kcal/mol for GGCAGAGGAAACTCTACC ((.((((....)))).)) ?
Response: class 0

Query: In plain terms: is recorded folding enthalpy at least -20 kcal/mol for GATTCTGGAAACAGAATC (((((((....))))))) ?
Response: class 0

Query: In plain terms: is recorded folding enthalpy at least -20 kcal/mol for GATCGCCCGCGCGATC ((((((....)))))) ?
Response: class 0

Query: In plain terms: is recorded folding enthalpy at least -20 kcal/mol for GGCCAACGAAAGTTTGCC (((.(((....))).))) ?
Response: class 0

Query: In plain terms: is recorded folding enthalpy at least -20 kcal/mol for GCGGTAGCGAAAGCTCGC (((..(((....)))))) ?
Response: class 1

Query: In plain terms: is recorded folding enthalpy at least -20 kcal/mol for GGTTATCGAAAGATGACC (((.(((....))).))) ?
Response: class 0

Query: In plain terms: is recorded folding enthalpy at least -20 kcal/mol for GTCGACGAAAGTCGGGAC ((((((....)))..))) ?
Response: class 1

Query: In plain terms: is recorded folding enthalpy at least -20 kcal/mol for GTCTACGAAAGTAGCGAC ((((((....)))..))) ?
Response: class 1

Query: In plain terms: is recorded folding enthalpy at least -20 kcal/mol for GCCGCGCGAAAGCGATGC ((..(((....)))..)) ?
Response: class 1
